molecular target: Lethal factor (Bacillus anthracis) (UniProt P15917); assay: anthrax lethal factor cleavage blockers – biochemical, multiplex microsphere, MLPCN library, primary screen (AID 588501); settings: multiplex microsphere protease cleavage assay, LF; at 10 µM; stronger effect = higher value; also: plate controls were buffer without enzyme for full effect and enzyme alone for no effect
Sequence (P15917 whole entry, looked up): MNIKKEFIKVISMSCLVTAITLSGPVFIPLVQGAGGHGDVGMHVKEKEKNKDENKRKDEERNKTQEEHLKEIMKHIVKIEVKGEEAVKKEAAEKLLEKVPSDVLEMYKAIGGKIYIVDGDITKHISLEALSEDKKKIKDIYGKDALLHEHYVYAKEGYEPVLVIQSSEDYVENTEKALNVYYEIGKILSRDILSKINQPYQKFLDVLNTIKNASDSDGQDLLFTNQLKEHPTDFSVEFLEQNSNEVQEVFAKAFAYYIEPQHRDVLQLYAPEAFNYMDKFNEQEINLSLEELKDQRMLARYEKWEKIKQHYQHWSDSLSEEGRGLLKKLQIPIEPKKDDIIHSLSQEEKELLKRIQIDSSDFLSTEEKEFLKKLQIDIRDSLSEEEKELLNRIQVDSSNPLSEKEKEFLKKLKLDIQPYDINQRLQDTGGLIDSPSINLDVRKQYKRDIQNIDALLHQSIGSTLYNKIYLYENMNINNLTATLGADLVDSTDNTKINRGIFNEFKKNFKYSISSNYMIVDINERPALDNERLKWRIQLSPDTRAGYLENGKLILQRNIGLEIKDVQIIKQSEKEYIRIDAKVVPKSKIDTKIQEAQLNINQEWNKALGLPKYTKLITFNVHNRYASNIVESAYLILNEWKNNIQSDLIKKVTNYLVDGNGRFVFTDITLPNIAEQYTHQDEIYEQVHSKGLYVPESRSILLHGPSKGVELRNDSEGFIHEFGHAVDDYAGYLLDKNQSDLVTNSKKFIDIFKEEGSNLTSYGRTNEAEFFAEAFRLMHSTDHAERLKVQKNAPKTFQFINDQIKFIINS
Out of some 360,000 compounds screened, about 420 (0.12%) were called active. The entries come from a sample that favours actives as a whole.
TEST_READOUT: inhibition (%)
Give a bare numeral; the unit % is implied.

[ask] // fetch inhibition given entry O=C(NC1CCCC1)C(c1ccco1)N(C(=O)c1ccco1)c1ccc(F)cc1 (stereo not given)
[reply] -0.3

[ask] // fetch inhibition given entry CNC[C@H]1Oc2c(NC(=O)C3CCCCC3)cccc2C(=O)N([C@H](C)CO)C[C@@H]1C
[reply] -2.2

[ask] // fetch inhibition given entry CN1CCc2nc(SC(C(=O)O)c3ccccc3)c(C#N)c(-c3cccs3)c2C1 (stereo not given)
[reply] -13.7

[ask] // fetch inhibition given entry CCC(=O)Nc1cccc(NC(=O)CSc2nnnn2C2CCCC2)c1
[reply] 3.1

[ask] // fetch inhibition given entry Nc1ncnc2c1cnn2C1CC(O)C(CO)O1 (stereo not given)
[reply] -1.1
